- assayNotes: protein stability index of a GFP-peptide fusion (GPS, HEK-293T) (PSI 1-6); higher = more stable;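 also: 24-mer peptide tiles fused after GFP, lentivirally expressed, FACS-sorted into six equal bins by GFP/DsRed ratio, decoded by Illumina sequencing, PSI is the read-weighted mean bin number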
- testParameters: treatment: DMSO; c terminus: a fixed tail appended
Respond with 1 (yes) for protein stability index values of 4 and above, 0 (no) for values below.

Prompt: Is reported protein stability index greater than or equal to 4 here: DSLHPRPPYLPLAVPEDLADRLVR [FUT8]
Completion: 1 (yes)

Prompt: Consider next the sequence KSKSITNLAAAAADIPQDQLVVMH [BTBD10] in the same way.
Completion: 1 (yes)

Prompt: Consider next the sequence PMVARYIRINPQSWFDNGSICMRM [CPXM2] in the same way.
Completion: 0 (no)

Prompt: Consider next the sequence RVLRQPRPALAQQAQGARAGGSAR [GMCL1] in the same way.
Completion: 1 (yes)

Prompt: Consider next the sequence LAVRGSRRERELERRELAVEQGER [ZBED3] in the same way.
Completion: 1 (yes)

Prompt: Consider next the sequence LFLSHVLALGLGIYIGKRLSTPSA [BNIP3L] in the same way.
Completion: 0 (no)

Prompt: Consider next the sequence ERAIETLIKNFHQYSVEGGKETLT [S100A14] in the same way.
Completion: 0 (no)

Prompt: Consider next the sequence INTLITSGADTAKCGIHSMFPLHL [ANKRD44] in the same way.
Completion: 0 (no)

Prompt: Consider next the sequence PGRGHTHAAQGGPLLCPGCQGQPQ [ELOA2] in the same way.
Completion: 1 (yes)

Prompt: Consider next the sequence PMAADEGSAEKQAGEAHMAADGET [EHMT1] in the same way.
Completion: 1 (yes)

Prompt: Consider next the sequence TCCYFKFIIEYYNIRPADSRWVRD [FBXO34] in the same way.
Completion: 0 (no)

Prompt: Consider next the sequence ALLDQIRQGIQLNKTPGAPESSAL [WAS] in the same way.
Completion: 0 (no)

Prompt: Consider next the sequence TREQLYQAIFHAVDQYLALPDVSL [MCOLN1] in the same way.
Completion: 0 (no)

Prompt: Consider next the sequence EQHNWNIEAAVQDRLNEQEGVPSV [FAF2] in the same way.
Completion: 1 (yes)

Prompt: Consider next the sequence KNTTYDLIANIVHDGKPSEGSYRI [USP39] in the same way.
Completion: 0 (no)

Prompt: Consider next the sequence FLTTAIRPHGIFGPRDPQLVPILI [NSDHL] in the same way.
Completion: 0 (no)

Prompt: Consider next the sequence YEFQIPYICPDYQSYFKTIEDFQQ [KRT36] in the same way.
Completion: 0 (no)

Prompt: Consider next the sequence LALFPLLPKVLQKYWCVTATRVAP [ZBED1] in the same way.
Completion: 0 (no)

Prompt: Consider next the sequence PSGTPELEVPKPGQPSEPEHGPSP [CHIT1] in the same way.
Completion: 1 (yes)

Prompt: Consider next the sequence REEVRGRELTGLKALYETELADAR [LMNB1] in the same way.
Completion: 1 (yes)

Prompt: Consider next the sequence HSFELDEKALASILLQDHIRDLDV [ATL3] in the same way.
Completion: 0 (no)

Prompt: Consider next the sequence LQELCYQWLRPHVSTKEQILDLLV [ZSCAN9] in the same way.
Completion: 0 (no)

Prompt: Consider next the sequence EVYQEVQAMFDTLGIPKSTTSDIP [FAM98B] in the same way.
Completion: 0 (no)

Prompt: Consider next the sequence QHSVPLQLELRAGAERLDALLADE [TRADD] in the same way.
Completion: 1 (yes)

Prompt: Consider next the sequence VADIDGQYAMTRAQRVRAAMFPET [CTNNB1] in the same way.
Completion: 0 (no)

Prompt: Consider next the sequence RKTVCHNGVLGLSRLLFFLLGFLR [LPCAT4] in the same way.
Completion: 0 (no)

Prompt: Consider next the sequence EENALWEEERAFWMENNGHVAGEQ [CCDC70] in the same way.
Completion: 1 (yes)

Prompt: Consider next the sequence RMEEIVEGCTGALHILARDVHNRI [CTNNB1] in the same way.
Completion: 0 (no)

Prompt: Consider next the sequence MEDEMPKTLYVGNLSRDVTEALIL [TIA1] in the same way.
Completion: 0 (no)

Prompt: Consider next the sequence SAPHLENSGHTIFNDPFFIVETVC [KCNA4] in the same way.
Completion: 0 (no)

Prompt: Consider next the sequence KEDNSLLNQGFLQAKPEKAAVAQK [MYBL2] in the same way.
Completion: 1 (yes)

Prompt: Consider next the sequence PCQKSPNGVRVFPPAMPPPATHLS [TRIM9] in the same way.
Completion: 0 (no)

Prompt: Consider next the sequence MAAGSTTLHAVEKLQVRLATKTEP [ELOA2] in the same way.
Completion: 0 (no)

Prompt: Consider next the sequence WPRNPPSRLLGAAAGQRSRPSTYY [DNAJC4] in the same way.
Completion: 0 (no)

Prompt: Consider next the sequence KWLDMLNNWDKWMAKKHKKIRLRC [TBC1D10A] in the same way.
Completion: 0 (no)

Prompt: Consider next the sequence TVDIQNPDITSSRYRGLPAPGPSP [WAS] in the same way.
Completion: 1 (yes)

Prompt: Consider next the sequence CNECGKAFRWGAHLVQHQRIHSGE [ZNF232] in the same way.
Completion: 1 (yes)

Prompt: Consider next the sequence AFHGAPSHLPTRSPSFPEAPDSGR [TBX6] in the same way.
Completion: 1 (yes)

Prompt: Consider next the sequence PPKVKAEDGMQCLQLKETLATQEP [DLC1] in the same way.
Completion: 1 (yes)

Prompt: Consider next the sequence LAESGGSPDVLQMLKIHRSDPQLI [TRADD] in the same way.
Completion: 0 (no)

Prompt: Consider next the sequence ILDAMAEETRQKQLLADEKMKQLT [TRIM35] in the same way.
Completion: 1 (yes)
